Test system: IL-5 production
measurement.description: In vitro inhibition of IL-5 production in human blood (phytohemagglutinin-stimulated whole blood, ELISA);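 also: values marked with an asterisk were tested at 10 µM and unmarked values at 1 µM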
Format: cell-based
condition.set: test dose 1×10^−6 M, 48 hours
readout: % inh. (percentage inhibition of IL-5 production) (%)

• Cc1nnc(SC(c2ccc(Cl)cc2)c2ccc(-n3ncc(=O)[nH]c3=O)cc2Cl)[nH]c1=O (stereo not shown) = 38
• O=c1cnn(-c2cc(Cl)c(C(c3ccc(Cl)cc3)c3nc(-c4ccc(-c5ccccc5)cc4)cs3)c(Cl)c2)c(=O)[nH]1 (racemic) = 57
• O=C(c1sc(C(c2ccc(Cl)cc2)c2c(Cl)cc(-n3ncc(=O)[nH]c3=O)cc2Cl)nc1-c1ccccc1)N1CCOCC1 (racemic) = 92
• O=c1cnn(-c2cc(Cl)c(C(c3ccc(Cl)cc3)c3sc(-c4ccccc4Cl)nc3-c3ccccc3Cl)c(Cl)c2)c(=O)[nH]1 (racemic) = 50
• Nc1ccnc(SC(c2ccc(Cl)cc2)c2ccc(-n3ncc(=O)[nH]c3=O)cc2Cl)n1 (racemic) = 66
• O=c1cnn(-c2cc(Cl)c(C(Sc3nc4ccccc4s3)c3ccc(Cl)cc3)c(Cl)c2)c(=O)[nH]1 (stereo not shown) = 95
• Cc1nc(SC(c2ccc(Cl)cc2)c2ccc(-n3ncc(=O)[nH]c3=O)cc2Cl)nc(O)c1CC1CC1 (racemic) = −15
• CC(c1ccc(Cl)c(Cl)c1)(c1nc(-c2ccccc2)cs1)c1c(Cl)cc(-n2ncc(=O)[nH]c2=O)cc1Cl (racemic) = 78
• O=c1cnn(-c2cc(Cl)c(C(c3ccc(Cl)cc3)c3nc(-c4cccc(F)c4)cs3)c(Cl)c2)c(=O)[nH]1 (single isomer, unassigned) [Comp 318] = 81
• O=c1cnn(-c2cc(Cl)c(C(Sc3nccc(N4CCOCC4)n3)c3ccc(Cl)cc3)c(Cl)c2)c(=O)[nH]1 (racemic) = 87
• O=c1cnn(-c2cc(Cl)c(C(c3ccc(Cl)cc3)c3cccnc3)c(Cl)c2)c(=O)[nH]1 (stereo not shown) = 74
• O=c1cnn(-c2cc(Cl)c(C(c3ccc(Cl)cc3)c3csc(-c4cccc(F)c4)n3)c(Cl)c2)c(=O)[nH]1 (racemic) = 88
• Cc1cc(-n2ncc(=O)[nH]c2=O)cc(C)c1C(c1ccc(Cl)c(Cl)c1)c1nc(-c2ccccc2)c(C)s1 (racemic) = 88

---

Tested on: IL-5 production
measurement.description: In vitro inhibition of IL-5 production in human blood (phytohemagglutinin-stimulated whole blood, ELISA);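 also: values marked with an asterisk were tested at 10 µM and unmarked values at 1 µM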
Type: cell-based
condition.set: test dose 1×10^−6 M, 48 hours
readout: % inh. (percentage inhibition of IL-5 production)

• Cc1cc(C(c2nc(-c3ccccc3)cs2)c2c(Cl)cc(-n3ncc(=O)[nH]c3=O)cc2Cl)ccc1Cl (racemic) = 90%
• O=c1cnn(-c2ccc(C(c3ccc(Cl)cc3)c3nnc(-c4ccccc4)s3)c(Cl)c2)c(=O)[nH]1 (stereo not shown) = 30%
• COC(C)c1sc(C(c2ccc(Cl)cc2)c2c(Cl)cc(-n3ncc(=O)[nH]c3=O)cc2Cl)nc1-c1ccccc1 (mixture of isomers) = 93%
• O=c1cnn(-c2cc(Cl)c(C(Sc3nccc(NC(CO)CO)n3)c3ccc(Cl)cc3)c(Cl)c2)c(=O)[nH]1 (racemic) = 28%

---

Tested on: IL-5 production
measurement.description: In vitro inhibition of IL-5 production in human blood (phytohemagglutinin-stimulated whole blood, ELISA);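 also: values marked with an asterisk were tested at 10 µM and unmarked values at 1 µM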
Assay type: cell-based
condition.set: test dose 1×10^−6 M, 48 hours
# binarize % inh. (percentage inhibition of IL-5 production): threshold 80% inclusive, high side yes, low side no

* CCOCc1sc(C(c2ccc(Cl)cc2)c2c(Cl)cc(-n3ncc(=O)[nH]c3=O)cc2Cl)nc1-c1ccccc1 (racemic) [Comp 295] | yes
* O=c1cnn(-c2cc(Cl)c(C(c3ccc(Cl)cc3)c3nnc(-c4cccc(O)c4)o3)c(Cl)c2)c(=O)[nH]1 (racemic) [Compound 200] | no
* Cc1nnc(SC(c2ccc(Cl)cc2)c2ccc(-n3ncc(=O)[nH]c3=O)cc2Cl)s1 (racemic) [Compound 56] | no
* Cc1nc(-c2ccccc2Cl)c(C(c2ccc(Cl)cc2)c2ccc(-n3ncc(=O)[nH]c3=O)cc2Cl)s1 (racemic) [Compound 139] | no
* Cc1nc(-c2ccccc2)c(C(c2ccc(Cl)cc2)c2ccc(-n3ncc(=O)[nH]c3=O)cc2Cl)s1 (racemic) [Compound 134] | yes
* COCCNC(=O)Cc1sc(C(c2ccc(Cl)cc2)c2c(Cl)cc(-n3ncc(=O)[nH]c3=O)cc2Cl)nc1-c1ccccc1 (racemic) [Comp 320] | yes
* Cc1c(NS(N)(=O)=O)cccc1-c1nnc(C(c2ccc(Cl)cc2)c2c(Cl)cc(-n3ncc(=O)[nH]c3=O)cc2Cl)o1 (racemic) [Compound 218] | no
* O=c1cnn(-c2cc(Cl)c(C(c3ccc(Cl)cc3)c3nc4ccccc4s3)c(Cl)c2)c(=O)[nH]1 (stereo not shown) [Comp 421] | yes
* O=c1cnn(-c2ccc(C(NC3CCCCC3)c3ccc(Cl)cc3)c(Cl)c2)c(=O)[nH]1 (racemic) [Compound 46] | no
* O=c1cnn(-c2cc(Cl)c(C(Sc3nc4ccccc4o3)c3ccc(Cl)c(C(F)(F)F)c3)c(Cl)c2)c(=O)[nH]1 (stereo not shown) [Compound 379] | yes

---

System: IL-5 production
measurement.description: In vitro inhibition of IL-5 production in human blood (phytohemagglutinin-stimulated whole blood, ELISA);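 also: values marked with an asterisk were tested at 10 µM and unmarked values at 1 µM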
Format: cell-based
condition.set: test dose 1×10^−6 M, 48 hours
Parameter % inh. (percentage inhibition of IL-5 production): see the listing below.
readout: % inh. (percentage inhibition of IL-5 production) (%)

• Cn1ccnc1C(c1ccc(Cl)cc1)c1c(Cl)cc(-n2ncc(=O)[nH]c2=O)cc1Cl (racemic) = 35
• CN(C)CCNC(c1ccc(Cl)cc1)(c1nc(-c2ccccc2)c(Cl)s1)c1ccc(-n2ncc(=O)[nH]c2=O)cc1Cl (racemic) = 46
• Cc1cc(-n2ncc(=O)[nH]c2=O)cc(C)c1C(c1ccc(Cl)c(Cl)c1)c1nc(-c2ccccc2)cs1 (racemic) = 86
• CCOC(=O)c1sc(C(c2ccc(Cl)cc2)c2c(Cl)cc(-n3ncc(=O)[nH]c3=O)cc2Cl)nc1-c1ccccc1 (racemic) = 95
• CCOC(=O)N1CCC(NC(=S)Nc2cccc(-c3nnc(C(c4ccc(Cl)cc4)c4c(Cl)cc(-n5ncc(=O)[nH]c5=O)cc4Cl)o3)c2)CC1 (racemic) = 25
• O=c1cnn(-c2ccc(C(Sc3nnc(C(F)(F)F)[nH]3)c3ccc(Cl)cc3)c(Cl)c2)c(=O)[nH]1 (stereo not drawn) = 19

---

System: IL-5 production
measurement.description: In vitro inhibition of IL-5 production in human blood (phytohemagglutinin-stimulated whole blood, ELISA);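 also: values marked with an asterisk were tested at 10 µM and unmarked values at 1 µM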
Type: cell-based
condition.set: test dose 1×10^−6 M, 48 hours
Parameter % inh. (percentage inhibition of IL-5 production): see the listing below.
readout: % inh. (percentage inhibition of IL-5 production) (%)

- O=c1cnn(-c2cc(Cl)c(C(c3ccc(Cl)cc3)c3ncc(-c4ccccc4)s3)c(Cl)c2)c(=O)[nH]1 (racemic): 81
- Cc1nc(C(c2ccc(Cl)cc2)c2ccc(-n3ncc(=O)[nH]c3=O)cc2Cl)c(-c2ccccc2)s1 (racemic): 66
- CC(=O)Nc1ccc(SC(c2ccc(Cl)c(C(F)(F)F)c2)c2c(Cl)cc(-n3ncc(=O)[nH]c3=O)cc2Cl)cc1 (racemic): 96
- O=c1cnn(-c2cc(Cl)c(C(Sc3nc4ccc([N+](=O)[O-])cc4s3)c3ccc(Cl)c(C(F)(F)F)c3)c(Cl)c2)c(=O)[nH]1 (stereo not drawn): 90
- CS(=O)(=O)O.O.O.O=c1cnn(-c2cc(Cl)c(C(Sc3nccc(N4CCOCC4)n3)c3ccc(Cl)cc3)c(Cl)c2)c(=O)[nH]1 (racemic): 82
- O=c1cnn(-c2ccc(C(Sc3nc4cccnc4s3)c3ccc(Cl)cc3)c(Cl)c2)c(=O)[nH]1 (racemic): 76

---

Parameter melting point: see the listing below.
readout: melting point (°C)

- O=C(O)c1sc(C(c2ccc(Cl)cc2)c2c(Cl)cc(-n3ncc(=O)[nH]c3=O)cc2Cl)nc1-c1ccccc1 (racemic): 206
- O=C(CO)Nc1ccccc1-c1nnc(C(c2ccc(Cl)cc2)c2c(Cl)cc(-n3ncc(=O)[nH]c3=O)cc2Cl)o1 (racemic): 235
- O=c1cnn(-c2cc(Cl)c(C(c3ccc(Cl)cc3)c3nc(-c4ccccc4)no3)c(Cl)c2)c(=O)[nH]1 (racemic): 128
- CN(C)C(=O)c1sc(C(c2ccc(Cl)cc2)c2c(Cl)cc(-n3ncc(=O)[nH]c3=O)cc2Cl)nc1-c1ccccc1 (racemic): 150

---

Tested on: IL-5 production
measurement.description: In vitro inhibition of IL-5 production in human blood (phytohemagglutinin-stimulated whole blood, ELISA);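 also: values marked with an asterisk were tested at 10 µM and unmarked values at 1 µM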
Format: cell-based
condition.set: test dose 1×10^−6 M, 48 hours
Protocol: In Vitro Inhibition of IL-5 Production in Human Blood Human Whole Blood Stimulation Peripheral blood from healthy male donors was drawn into heparinized syringes (12.5 U heparin/ml). Blood samples were three-fold diluted in RMPI 1640 medium (Life Technologies, Belgium) supplemented with 2 mM L-glutamine, 100 U/ml penicillin and 100 μg/ml streptomycin, and 300 μl fractions were distributed in 24-well multidisc plates. […]
Parameter % inh. (percentage inhibition of IL-5 production): see the listing below.
readout: % inh. (percentage inhibition of IL-5 production)

- O=c1cnn(-c2cc(Cl)c(C(c3ccc(Cl)cc3)c3nc(-c4ccccc4Br)cs3)c(Cl)c2)c(=O)[nH]1 (racemic) [Comp 244]: 95%
- Cc1oc(C(c2ccc(Cl)cc2)c2c(Cl)cc(-n3ncc(=O)[nH]c3=O)cc2Cl)nc1-c1ccc(F)cc1 (stereo not drawn) [Comp 431]: 67%
- O=c1cnn(-c2cc(Cl)c(C(c3ccc(Cl)cc3)c3nnc(-c4cccc(Cl)c4)o3)c(Cl)c2)c(=O)[nH]1 (racemic) [Compound 157]: 85%
- O=c1cnn(-c2cc(Cl)c(C(c3ccc(Cl)cc3)c3nc(-c4ccc(O)cc4)cs3)c(Cl)c2)c(=O)[nH]1 (racemic) [Comp 26]: 85%
- CN1CCC(c2nnc(C(c3ccc(Cl)cc3)c3c(Cl)cc(-n4ncc(=O)[nH]c4=O)cc3Cl)o2)CC1 (racemic) [Compound 195]: 7%
- Cl.O=c1cnn(-c2ccc(C(NCCc3ccco3)c3ccc(Cl)cc3)c(Cl)c2)c(=O)[nH]1 (racemic) [Compound 43]: 37%
